System: Klebsiella pneumoniae strain 1139
Protocol: Checkerboard assay (FICI) with antibiotics, K. pneumoniae
Format: cell-based
Measurement parameters: checkerboard, in combination with Chp10-M1
Protocol: Checkerboard assays. […] Checkerboards were constructed by first preparing columns of a 96-well polypropylene microtiter plate, in which each well had the same amount of antibiotic diluted 2-fold along the horizontal axis. […] Summation fractional inhibitory concentration index (FICIs) were calculated for each drug and the minimum FICI was used to determine synergy. […]
In this section, each of the molecules is paired with its reported Antibiotic MIC.

{"Molecule": "C[C@H]1COc2c(N3CCN(C)CC3)c(F)cc3c(=O)c(C(=O)O)cn1c23", "System tested": "Klebsiella pneumoniae strain 1139", "Antibiotic MIC / ng/mL": 7.812}
{"Molecule": "NC[C@H]1O[C@H](O[C@H]2[C@H](O)[C@@H](O[C@H]3O[C@H](CO)[C@@H](O)[C@H](N)[C@H]3O)[C@H](N)C[C@@H]2N)[C@H](N)C[C@@H]1O [tobramycin, reference compound]", "System tested": "Klebsiella pneumoniae strain 1139", "Antibiotic MIC / ng/mL": 3.906}
{"Molecule": "C[C@@H](O)[C@H]1C(=O)N2C(C(=O)O)=C(S[C@@H]3CN[C@H](C(=O)N(C)C)C3)[C@H](C)[C@H]12 [meropenem, reference compound]", "System tested": "Klebsiella pneumoniae strain 1139", "Antibiotic MIC / ng/mL": 15.62}
{"Molecule": "C[C@H]1[C@H](NC(=O)/C(=N\\OC(C)(C)C(=O)O)c2csc(N)n2)C(=O)N1S(=O)(=O)O", "System tested": "Klebsiella pneumoniae strain 1139", "Antibiotic MIC / ng/mL": 7.812}
{"Molecule": "CC[C@H]1OC(=O)[C@H](C)[C@@H](O[C@H]2C[C@@](C)(OC)[C@@H](O)[C@H](C)O2)[C@H](C)[C@@H](O[C@@H]2O[C@H](C)C[C@H](N(C)C)[C@H]2O)[C@](C)(O)C[C@@H](C)CN(C)[C@H](C)[C@@H](O)[C@]1(C)O", "System tested": "Klebsiella pneumoniae strain 1139", "Antibiotic MIC / ng/mL": 1000}
